- assayedTarget: endogenous, cell-bound CD73 on SK-MEL-28 cells (Homo sapiens (Human))
- Sequence (P21589 27-574): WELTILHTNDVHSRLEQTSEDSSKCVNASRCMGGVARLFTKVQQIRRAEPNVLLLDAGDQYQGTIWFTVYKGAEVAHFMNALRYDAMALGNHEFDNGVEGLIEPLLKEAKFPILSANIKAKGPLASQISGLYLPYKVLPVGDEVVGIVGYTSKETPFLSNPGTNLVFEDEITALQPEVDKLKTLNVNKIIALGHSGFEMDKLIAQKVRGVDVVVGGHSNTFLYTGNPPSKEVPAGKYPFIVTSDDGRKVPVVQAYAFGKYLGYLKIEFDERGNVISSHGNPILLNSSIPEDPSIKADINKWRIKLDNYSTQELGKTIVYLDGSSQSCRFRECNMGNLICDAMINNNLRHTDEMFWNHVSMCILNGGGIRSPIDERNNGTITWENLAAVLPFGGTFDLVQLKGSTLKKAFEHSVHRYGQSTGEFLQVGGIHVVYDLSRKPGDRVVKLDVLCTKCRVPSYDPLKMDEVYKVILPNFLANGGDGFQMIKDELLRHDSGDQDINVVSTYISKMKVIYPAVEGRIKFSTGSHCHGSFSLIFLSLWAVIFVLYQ
- testDescription: Inhibition of endogenous, cell-bound CD73 enzyme activity in SK-MEL-28 cells (Malachite Green)
- experimentalContext: 100 μM AMP, 30 minutes at room temperature
# yes = IC50 below 4000 nM (exclusive); no = IC50 at/above 4000 nM

>  <compound>
N#Cc1ccc(CC(OC[C@H]2O[C@@H](n3cnc4c(N)nc(Cl)nc43)[C@@H](F)[C@@H]2O)(C(=O)O)C(=O)O)cc1

>  <cat>
yes

$$$$
>  <compound>
Nc1nc(Cl)nc2c1ncn2[C@@H]1O[C@H](COC(Cc2cc(-c3ccccc3)no2)(C(=O)O)C(=O)O)[C@@H](O)[C@@H]1F

>  <cat>
no

$$$$
>  <compound>
Nc1nc(Cl)nc2c1ncn2[C@@H]1O[C@H](COC(Cc2ccccc2)(C(=O)O)C(=O)O)[C@@H](N)[C@H]1O

>  <cat>
no

$$$$
>  <compound>
CCOC(=O)C(Cc1ccc(OC(F)(F)F)cc1)(OC[C@H]1O[C@@H](n2cnc3c(N)nc(Cl)nc32)[C@@H](F)[C@@H]1O)C(=O)O (single isomer, unassigned) [compound 38]

>  <cat>
yes

$$$$
>  <compound>
Nc1nc(Cl)nc2c1ncn2[C@@H]1O[C@H](COC(Cc2ccccc2)(C(=O)O)C(=O)O)[C@@H](O)[C@H]1N

>  <cat>
no

$$$$
>  <compound>
Nc1nc(Cl)nc2c1ncn2[C@@H]1O[C@H](COC(Cc2cccc(OC(F)(F)F)c2)(C(=O)O)C(=O)O)[C@@H](O)[C@@H]1F

>  <cat>
yes

$$$$
